This collection of values is drawn from ChEMBL document CHEMBL1201861.

- Tested on: HLE;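 further: growth inhibition of human HLE cells, read out by a cell viability assay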
- protocol.text: cells
- Format: functional, cell-based, Homo sapiens
- conditions: Homo sapiens, HLE
- Description: SANGER: Inhibition of human HLE cell growth in a cell viability assay.
pIC50: −log10 of the molar value.
Each entry below carries its reported pIC50.

Some solved cases for reference:
molecule	assayed.system	observed.measurement
Cc1cn(-c2cc(NC(=O)c3ccc(C)c(Nc4nccc(-c5cccnc5)n4)c3)cc(C(F)(F)F)c2)cn1	HLE	< 5.70
Nc1cccc2c1CN(C1CCC(=O)NC1=O)C2=O (stereo not drawn) [LENALIDOMIDE]	HLE	< 5.30

Here's the next entry for you.
Prompt line: pIC50 lookup needed for Cn1cnc2c(F)c(Nc3ccc(Br)cc3Cl)c(C(=O)NOCCO)cc21 , thanks.
Response line: < 5.40

----------
Quick list: pIC50 per entry.
- Tested on: LU-165
- protocol.text: cells
- Format: functional, cell-based, Homo sapiens
- conditions: Homo sapiens, LU-165
- Description: SANGER: Inhibition of human LU-165 cell growth in a cell viability assay.
pIC50: −log10 of the molar value.

Below, 5 molecules whose answers are already recorded.
molecule	assayed.system	pIC50
C=C(c1ccc(C(=O)O)cc1)c1cc2c(cc1C)C(C)(C)CCC2(C)C	LU-165	< 5.10
N[C@@H](CSC(c1ccccc1)(c1ccccc1)c1ccccc1)C(=O)O	LU-165	< 5.29
COc1cccc2c1C(=O)c1c(O)c3c(c(O)c1C2=O)C[C@@](O)(C(=O)CO)C[C@@H]3O[C@H]1C[C@H](N)[C@H](O)[C@H](C)O1	LU-165	6.19
CCN(CC)CCNC(=O)c1c(C)[nH]c(/C=C2\C(=O)Nc3ccc(F)cc32)c1C	LU-165	< 5.10
COc1cc2ncn(-c3cc(OCc4ccccc4S(C)(=O)=O)c(C#N)s3)c2cc1OC [GSK-319347A]	LU-165	< 5.30

# input for lookup
Prompt line: Record request: pIC50 value, item COc1cc(N2CCN(C)CC2)ccc1Nc1ncc2c(n1)N(C)c1ccccc1C(=O)N2C
Response line: < 5.10

----------
- Tested on: SW13;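 further: IC50 is inhibition of SW13 cell growth, read out with a cell viability assay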
- protocol.text: cells
- Format: functional, cell-based, Homo sapiens
- conditions: Homo sapiens, SW13
- Description: SANGER: Inhibition of human SW13 cell growth in a cell viability assay.
Entries annotated with measured IC50
Please state the figure in nM; there is no need to write the unit.

CO[C@H]1C[C@@H]2CC[C@@H](C)[C@@](O)(O2)C(=O)C(=O)N2CCCC[C@H]2C(=O)O[C@H]([C@H](C)C[C@@H]2CC[C@@H](OC(=O)C(C)(CO)CO)[C@H](OC)C2)CC(=O)[C@H](C)/C=C(\C)[C@@H](O)[C@@H](OC)C(=O)[C@H](C)C[C@H](C)/C=C/C=C/C=C/1C 186

Prompt line: Enter reported IC50 observed with SW13 for Nc1ccn([C@@H]2O[C@H](CO)[C@@H](O)C2(F)F)c(=O)n1
Response line: 330

----------
Entries and their IC50
- Tested on: SK-PN-DW;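 further: growth inhibition measured with a viability assay on these cells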
- protocol.text: cells
- Format: functional, cell-based, Homo sapiens
- conditions: Homo sapiens, SK-PN-DW
- Description: SANGER: Inhibition of human SK-PN-DW cell growth in a cell viability assay.
Please reply with the bare figure in nM and do not write the unit itself.

compound	observed.measurement
O=C(O)c1ccc(-c2c[nH]c3ncc(-c4ccccc4)cc23)cc1C1CCCC1 [GSK-650394]	14200
OCCCNc1cc(-c2ccnc(Nc3cccc(Cl)c3)n2)ccn1	90.2

Prompt line: Find the recorded IC50 belonging to COc1cc2ncn(-c3cc(OCc4ccccc4C(F)(F)F)c(C(N)=O)s3)c2cc1OC [GW843682X] and report it.
Response line: 38.7
